Test system: 596521-263-R-J1-PDC complex spheroids, viability % of control;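 note: spheroids exposed to drugs for 7 days before viability reading; 100% = DMSO vehicle control viability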
Experiment: Anticancer human tumor 596521-263-R-J1-PDC patient-derived soft tissue sarcoma cell line growth inhibition [GQUAD]
Conditions: second compound 3.16 µM; first compound 0.000999 µM; stronger effect = lower value
Readout Kind: viability, T/C (%)
Express it in %; write the number only.

Consider the reported viability, T/C for these compounds:
CC[C@@]1(O)C(=O)OCc2c1cc1n(c2=O)Cc2cc3c(CN(C)C)c(O)ccc3nc2-1 + CN(C)c1ccc(Nc2c3ccc(NC(=O)CCN4CCCC4)cc3nc3cc(NC(=O)CCN4CCCC4)ccc23)cc1 ... 95.8
CCc1c2c(nc3ccc(O)cc13)-c1cc3c(c(=O)n1C2)COC(=O)[C@]3(O)CC + CN(C)c1ccc(Nc2c3ccc(NC(=O)CCN4CCCC4)cc3nc3cc(NC(=O)CCN4CCCC4)ccc23)cc1 ... 58.6

Kindly note the recorded viability, T/C for Cc1[nH]c2ccccc2c1CCNCc1ccc(/C=C/C(=O)NO)cc1 + Cc1cnc(CNC(=O)c2c(=O)c3ccc(N4CCCN(C)CC4)nc3n3c2sc2ccccc23)cn1 , which is 49.9

Kindly note the recorded viability, T/C for Cn1ncnc1[C@H]1c2n[nH]c(=O)c3cc(F)cc(c23)N[C@@H]1c1ccc(F)cc1 + CN(C)c1ccc(Nc2c3ccc(NC(=O)CCN4CCCC4)cc3nc3cc(NC(=O)CCN4CCCC4)ccc23)cc1 , which is 94

Kindly note the recorded viability, T/C for CCc1c2c(nc3ccc(O)cc13)-c1cc3c(c(=O)n1C2)COC(=O)[C@]3(O)CC + Cc1cnc(CNC(=O)c2c(=O)c3ccc(N4CCCN(C)CC4)nc3n3c2sc2ccccc23)cn1 , which is 55.8

Kindly note the recorded viability, T/C for Cn1ncnc1[C@H]1c2n[nH]c(=O)c3cc(F)cc(c23)N[C@@H]1c1ccc(F)cc1 + Cc1cnc(CNC(=O)c2c(=O)c3ccc(N4CCCN(C)CC4)nc3n3c2sc2ccccc23)cn1 , which is 55.9

Kindly note the recorded viability, T/C for Cc1[nH]c2ccccc2c1CCNCc1ccc(/C=C/C(=O)NO)cc1 + CN(C)c1ccc(Nc2c3ccc(NC(=O)CCN4CCCC4)cc3nc3cc(NC(=O)CCN4CCCC4)ccc23)cc1 , which is 78.6

Kindly note the recorded viability, T/C for Cn1ncnc1[C@H]1c2n[nH]c(=O)c3cc(F)cc(c23)N[C@@H]1c1ccc(F)cc1 + Cc1[nH]c2ccc(F)cc2c1-c1nc2c3cccnc3c3ncccc3c2[nH]1 , which is 89.3

Kindly note the recorded viability, T/C for Cc1[nH]c2ccccc2c1CCNCc1ccc(/C=C/C(=O)NO)cc1 + Cc1[nH]c2ccc(F)cc2c1-c1nc2c3cccnc3c3ncccc3c2[nH]1 , which is 82.6

Kindly note the recorded viability, T/C for CCc1c2c(nc3ccc(O)cc13)-c1cc3c(c(=O)n1C2)COC(=O)[C@]3(O)CC + Cc1[nH]c2ccc(F)cc2c1-c1nc2c3cccnc3c3ncccc3c2[nH]1 , which is 61.8

Kindly note the recorded viability, T/C for CC[C@@]1(O)C(=O)OCc2c1cc1n(c2=O)Cc2cc3c(CN(C)C)c(O)ccc3nc2-1 + Cc1cnc(CNC(=O)c2c(=O)c3ccc(N4CCCN(C)CC4)nc3n3c2sc2ccccc23)cn1 , which is 54.3

Kindly note the recorded viability, T/C for CC[C@@]1(O)C(=O)OCc2c1cc1n(c2=O)Cc2cc3c(CN(C)C)c(O)ccc3nc2-1 + Cc1[nH]c2ccc(F)cc2c1-c1nc2c3cccnc3c3ncccc3c2[nH]1 , which is 86.4
